Origin of the recorded values: paper PMC12040169

Test: in vitro
Conditions: human, hela cells, % viability
Metric: viability at 28.5 h, 10 µM
Respond with the figure and its unit, in that order.

CC(C)(C)c1cc(C(=O)NCCN2CCCC2)n(Cc2ccc(Cl)cc2Cl)n1 [CBK107290] | 115%
O=C(C1CCCC1)N1CCc2nc(-c3ccccc3)[nH]c(=O)c2C1 [CBK282331] | 99%
CCN1CCCC1CNC(=O)C1(O)c2ccccc2NC(=O)N1c1ccccc1 (stereo not drawn) [CBK288554] | 90.5%
COc1cccc(CC(=O)N2CCOc3ncccc32)c1 [CBK305235] | 98.4%
N#Cc1nc(COc2cccc(Cl)c2)oc1NCc1ccncc1 [CBK266447] | 95.7%
CN(C)C(=O)C1(Cc2ccccc2-c2cccnc2)CCN(Cc2ccccc2)CC1 [CBK285522] | 85.7%
c1ccc(Cn2cc(-c3nccnc3OCCn3ccnc3)cn2)cc1 [CBK107102] | 95.5%
Cc1nn(CC(=O)NCC2CC2)c(=O)c2cc3sccc3n12 [CBK284025] | 94.5%

Turning to the following molecule.
Exercise: Name the recorded viability at 28.5 h, 10 µM for Clc1ccc(Cl)c(-c2ccc(CNCCCN3CCOCC3)o2)c1 [CBK278190C] .
Key: 89.3%
